target.or.system: T1, TAMRA-labeled α-synuclein peptide
T1 chain: GYQDYEPEA
protocol.details: fluorescence polarization
measurement.conditions: chain shown with the change;; parent: est. 8.6 x10^7 M^-1; read off a plot
Let's look at some binders and their measured Ka.

Examples with answers:
binder	Ka
N2.17 VHH T100dS (protein) QGQLVESGGGSVQAGGSLRLSCAASGIDSSSYCMGWFRQRPGKEREGVARINGWGGVKTAYADSVKDRFTISRDNAENTVYLQMNSLKPEDTAIYYCAAKSSPGYCGGSWFNFGYWGQGTQVTVSS	3.8 x10^7 M^-1
N2.17 VHH W52bL (protein) QGQLVESGGGSVQAGGSLRLSCAASGIDSSSYCMGWFRQRPGKEREGVARINGLGGVKTAYADSVKDRFTISRDNAENTVYLQMNSLKPEDTAIYYCAAKSSPGYCGGTWFNFGYWGQGTQVTVSS	3.3 x10^7 M^-1
N2.17 VHH S96F (protein) QGQLVESGGGSVQAGGSLRLSCAASGIDSSSYCMGWFRQRPGKEREGVARINGWGGVKTAYADSVKDRFTISRDNAENTVYLQMNSLKPEDTAIYYCAAKFSPGYCGGTWFNFGYWGQGTQVTVSS	1.6 x10^7 M^-1

Next, consider the following binder.
Need Ka of N2.17 VHH F100fS (protein) QGQLVESGGGSVQAGGSLRLSCAASGIDSSSYCMGWFRQRPGKEREGVARINGWGGVKTAYADSVKDRFTISRDNAENTVYLQMNSLKPEDTAIYYCAAKSSPGYCGGTWSNFGYWGQGTQVTVSS , thanks.
9.6 x10^7 M^-1
